System: HepG2
protocol.notes: cell viability relative to DMSO; higher = less toxic
condition: 72 h; 1000 nM
Assignment: determine reported cell viability for the given compounds.
Give bare numbers, in %.

Example entries begin here.
compound	experimental.target	units.label	measured
O=C(NC1CCC1)c1ccc(C#Cc2cccc(F)c2)nc1	HepG2	%	85.8
COc1ccc(-c2coc3cc(O)cc(O)c3c2=O)cc1	HepG2	%	92.6

# batch size: 4; output cell viability per entry
1. O=C(/C=C/c1ccccc1)NC(NC(=S)Nc1cccc2cccnc12)C(Cl)(Cl)Cl (stereo not given)
2. Cc1c(C(N)=O)cc([N+](=O)[O-])cc1[N+](=O)[O-] [dinitolmide]
3. CN(C)C1CCN(C(=O)c2ccc(NC(=O)Nc3ccc(-c4nc(N5CCOCC5)nc(N5CCOCC5)n4)cc3)cc2)CC1
4. O=C(Oc1ccc(Br)cc1)N1CCN2CCC1CC2

1. 101
2. 99.7
3. 100
4. 103

###

Assignment: determine reported cell viability for the given molecules.
Tested on: HepG2
protocol.notes: cell viability relative to DMSO; higher = less toxic
condition: 72 h; 100 nM
One number for each entry, in %.

molecule	result.type	units.label	measured
Cc1cc(S(=O)(=O)O)c2c(C)ccc(C(C)C)cc1-2 [sodium-gualenate]	cell viability	%	103
O=C1C[C@@H](c2ccc(O)cc2)Oc2cc(O)cc(O)c21 [naringenin]	cell viability	%	99.3
CN(C)CCC=C1c2ccccc2CCc2ccccc21 [amitriptyline]	cell viability	%	99.1
CC1(C)S[C@@H]2[C@H](NC(=O)[C@H](N)c3ccc(O)cc3)C(=O)N2[C@H]1C(=O)O [amoxicillin]	cell viability	%	97.3

# batch size: 7; output cell viability per entry
1. COC(=O)c1cc(OC)c2c(c1-c1c(CO)cc(OC)c3c1OCO3)OCO2 [bicyclol]
2. O=C(NOCC1CC1)c1ccc(F)c(F)c1Nc1ccc(I)cc1Cl
3. OCCOc1ccc(/C(=C(/CCCl)c2ccccc2)c2ccccc2)cc1 [ospemifene]
4. O=C(O)c1ccc2c(c1)nc(Nc1cccc(Cl)c1)c1ccncc12 [CX-4945]
5. CCOC(=O)[C@H](CCc1ccccc1)N[C@@H](C)C(=O)N1[C@H](C(=O)O)C[C@H]2CCCC[C@@H]21 [trandolapril]
6. c1ccc2sc(SNC3CCCCC3)nc2c1 [N-cyclohexyl-2-benzothiazolesulfenamide]
7. CC(=O)CC/C=C(\C)CC/C=C(\C)CC/C=C(\C)CCC=C(C)C [teprenone]

92.1
84.2
103
92
96.4
84.2
97.4

###

System: U2OS
protocol.notes: cell viability relative to DMSO; higher = less toxic
condition: 72 h; 100 nM
Counter-ions that a name gives are not always drawn.
result.type: cell viability (%)
One number for each entry, in %.

Example entries begin here.
compound	experimental.target	measured
O=C(O)C1=CCCN(CCON=C(c2ccccc2)c2ccccc2)C1	U2OS	103
Cc1c(F)cccc1NC(=O)Nc1ccc(Cl)c(S(=O)(=O)[C@H]2CCCNC2)c1O	U2OS	95.4
CO/N=C(\C(=O)N[C@@H]1C(=O)N2C(C(=O)O)=C(CSC(=O)c3ccco3)CS[C@H]12)c1csc(N)n1 [CEFTIOFUR HYDROCHLORIDE]	U2OS	100

Now let's try a different one.
Provide the documented cell viability with U2OS as the system for `CO[C@H]1[C@H](O)[C@@H](O)[C@@H](O)[C@H](O)[C@@H]1O`
98.4

All figures here come from the supplement of paper PMC13380429.
